Item-by-item account of pIC50
- measurement target: FGFR4 (Homo sapiens (Human), UniProt P22455)
- Sequence (P22455 22-802): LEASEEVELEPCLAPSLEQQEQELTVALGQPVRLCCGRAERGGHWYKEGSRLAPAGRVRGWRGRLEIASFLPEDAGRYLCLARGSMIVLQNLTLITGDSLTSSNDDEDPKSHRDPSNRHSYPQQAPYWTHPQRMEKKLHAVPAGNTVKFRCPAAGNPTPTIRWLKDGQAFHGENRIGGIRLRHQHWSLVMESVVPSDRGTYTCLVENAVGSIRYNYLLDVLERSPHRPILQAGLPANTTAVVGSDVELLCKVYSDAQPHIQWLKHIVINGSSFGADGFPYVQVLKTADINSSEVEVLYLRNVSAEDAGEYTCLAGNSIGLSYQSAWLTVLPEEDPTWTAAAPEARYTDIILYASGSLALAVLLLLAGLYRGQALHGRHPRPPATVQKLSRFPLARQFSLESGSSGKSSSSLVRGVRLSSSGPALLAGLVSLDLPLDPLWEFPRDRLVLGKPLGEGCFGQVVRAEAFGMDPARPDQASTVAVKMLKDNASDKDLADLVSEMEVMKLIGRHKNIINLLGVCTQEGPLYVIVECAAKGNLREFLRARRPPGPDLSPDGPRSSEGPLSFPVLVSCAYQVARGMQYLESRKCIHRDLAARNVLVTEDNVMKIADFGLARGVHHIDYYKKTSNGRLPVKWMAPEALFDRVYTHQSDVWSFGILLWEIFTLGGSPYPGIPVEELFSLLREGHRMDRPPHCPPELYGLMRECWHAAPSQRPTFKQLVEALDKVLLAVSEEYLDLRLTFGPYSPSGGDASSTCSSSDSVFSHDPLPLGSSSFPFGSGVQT
- test description: FGFR Enzymatic Assay (FRET peptide phosphorylation), FGFR4
- Assay type: biochemical
- condition info: pre-incubated for 4 hours
pIC50: −log10 of the molar value.

| compound | measurement target | result |
| --- | --- | --- |
| COc1cc(OC)c(F)c(N2Cc3cnc(-c4cncc(C#N)c4)cc3C3(CC3)C2=O)c1F | FGFR4 (Homo sapiens (Human), UniProt P22455) | 7.52 to 8.00 |
| COc1cc(OC)c(F)c(N2Cc3cnc(-c4cncc(N)c4)cc3C3(CC3)C2=O)c1F | FGFR4 (Homo sapiens (Human), UniProt P22455) | > 8.00 |
| COC(=O)N1CCC(N2C(=O)N(c3c(F)c(OC)cc(OC)c3F)Cc3cnc(-c4cn(C)nc4C)cc32)CC1 | FGFR4 (Homo sapiens (Human), UniProt P22455) | 6.70 to 7.52 |
| CCN1C(=O)N(c2c(F)c(OC)cc(OC)c2F)Cc2cnc(-c3ccc(C(N)=O)nc3)cc21 | FGFR4 (Homo sapiens (Human), UniProt P22455) | 7.52 to 8.00 |

Tell me its pIC50 given COc1cc(OC)c(F)c(N2Cc3cnc(-c4cn(C)nc4C)cc3N(Cc3cnn(C4CC4)c3)C2=O)c1F as the entry.
> 8.00

Tell me its pIC50 given CCN1C(=O)N(c2c(F)c(OC)cc(OC)c2F)Cc2cnc(-c3ccc(C(=O)NC4CC4)nc3)cc21 as the entry.
7.52 to 8.00

Tell me its pIC50 given COc1cc(OC)c(F)c(N2Cc3cnc(-c4cn(C5CCN(C)C5)nc4C)cc3C3(CC3)C2=O)c1F (stereo not drawn) as the entry.
6.70 to 7.52

Tell me its pIC50 given COc1cccc(N2C(=O)N(c3c(F)c(OC)cc(OC)c3F)Cc3cnc(-c4cn(C)nc4C)cc32)c1 as the entry.
6.70 to 7.52

Tell me its pIC50 given COc1cc(OC)c(F)c(N2Cc3cnc(-c4cn(C)nc4C)cc3N(C3CCN(S(C)(=O)=O)CC3)C2=O)c1F as the entry.
6.70 to 7.52
